- Assay info: Test II, cellular toxicity, H9 cells
- Assay type: cell-based
- Test context: human, 250 μM, read-out: % inhibition of cell multiplication
- Description: H9 cells, 2×10^7 cells per plate, are incubated in […] medium containing 10% fetal calf serum, 70 mg/l penicillin, 100 mg/l streptomycin and 10 mM hepes, in absence or presence of test compounds. The number of cells per plate is determined after 48 h. Cells incubated in the absence of test compounds then underwent two cell division cycles. […]
Measurement kind: inhibition at 48 h, 250 µM

QUERY: Consider the compound shown here: "CCCc1cn([C@H]2C[C@H](F)[C@@H](CO)O2)c(=O)[nH]c1=O" What is its recorded inhibition at 48 h, 250 µM?
RESULT: 15%

----------
- Assay info: Test II, cellular toxicity, F5000 cells
- Assay type: cell-based
- Test context: human, read-out: % inhibition of cell multiplication
Hi there, I'd appreciate the recorded inhibition at 48 h, 100 µM for every entry that follows.
Just the number in %, nothing appended.

QUERY: Consider the compound shown here: O=c1ccn([C@H]2C[C@H](F)[C@@H](CO)O2)c(=O)[nH]1 [VSA 417] What is its recorded inhibition at 48 h, 100 µM?
RESULT: 10

QUERY: Consider the compound shown here: CCCc1cn([C@H]2C[C@H](F)[C@@H](CO)O2)c(=O)[nH]c1=O [VSA 408] What is its recorded inhibition at 48 h, 100 µM?
RESULT: 0

QUERY: Consider the compound shown here: CCc1cn([C@H]2C[C@H](F)[C@@H](CO)O2)c(=O)[nH]c1=O [VSA 410] What is its recorded inhibition at 48 h, 100 µM?
RESULT: 25

----------
- Test system: HIV (HTLV-IIIB)
- Assay info: Test I, effect of compounds on HIV in H9 cells (HIV antigen containing cells)
- Format: cell-based
- Test context: 6-7 days, read-out: Concentration for 50% inhibition (IC50) of human immuno deficiency virus multiplication in cell culture
Measurement kind: IC50

QUERY: Consider the compound shown here: "CC(=O)OC[C@H]1O[C@@H](n2cc(C)c(=O)[nH]c2=O)C[C@@H]1F" What is its recorded IC50?
RESULT: < 10 nM

----------
- Assay info: Test II, cellular toxicity, H9 cells
- Type: cell-based
- Test context: human, 100 μM, read-out: % inhibition of cell multiplication
Measurement kind: inhibition at 48 h, 100 µM (%)
Just the number in %, nothing appended.

QUERY: Consider the molecule shown here: CCc1cn([C@H]2C[C@H](F)[C@@H](CO)O2)c(=O)[nH]c1=O [VSA 410] What is its recorded inhibition at 48 h, 100 µM?
RESULT: 25
